- Tested on: P388 leukemia ip, CD2F1 mice, survival T/C
- Procedure Details: NCI In Vivo Anticancer Drug Screen. Data for tumor model P388 Leukemia (intraperitoneal) in CD2F1 (CDF1) mice
- Test Parameters: endpoint: median survival time; dose: 200.0 mg/kg/injection; schedule: Q01DX001 (ip); vehicle: Klucel (hydroxypropylcellulose) (HPC); higher = longer survival
Toxic doses and inconclusive results are not listed.

# Compound, T/C
rows = [
    ("OCC(O)/C=C/c1ccccc1 (stereo unspecified)", "103 % of control"),
    ("COc1cccc(OC(=O)c2ccc(OC)c(C3=CC(=O)C=CC3=O)c2)c1", "93 % of control"),
    ("CCOc1nc(C(=O)O)cc2ccsc12", "94 % of control"),
    ("O=C1CC2(CCCC2)C(=O)N1c1cccc(Cl)c1", "100 % of control"),
    ("N#CN(Cc1ccccc1)C(c1ccccc1)(c1ccccc1)c1ccccc1", "91 % of control"),
    ("Cc1ccc(OP(=O)(Oc2ccc(C)cc2)Oc2ccc(C)cc2)cc1.Cc1ccc(OP(=O)(Oc2ccc(C)cc2)Oc2ccc(C)cc2)cc1.Cc1ccc(OP(=O)(Oc2ccc(C)cc2)Oc2ccc(C)cc2)cc1.Cc1ccc(OP(=O)(Oc2ccc(C)cc2)Oc2ccc(C)cc2)cc1.[Fe+2].[O-][Cl+3]([O-])([O-])O", "99 % of control"),
]
